Data provenance: PubChem BioAssay (NCATS)

- assay protocol: Viability qHTS for spleen associated tyrosine kinase inhibitor (SYKi) drug resistant MV4-11 cells (AID 1963824); further: nearly all actives have a fitted effect of over 35% in size
- cond: SYKi-resistant MV4-11 viability, CellTiter-Glo, 72 h; series mostly up to 45 µM
Records with an inconclusive call do not appear. Activity calls are given as the source filed them. The call rests on the fitted dose curve; in most records, active means well fitted cell-killing curve with a large enough effect; inconclusive means small, poorly fitted or top-dose-only effect, or effect the other way; inactive means no such curve, though single readings can be large or run the other way.
measured quantity: viability, % of control

COC(=O)C1=COC(O[C@@H]2O[C@H](CO)[C@@H](O)[C@H](O)[C@H]2O)/C(=C\COC(=O)c2ccc(OC3OC(CO)C(O)C(O)C3O)c(OC)c2)C1CC(=O)OCCc1ccc(O)cc1 (some centres not stated) ... 105% [at 9.25 µM] (inactive)

Let us examine a further case.
Record CC1(C)CC[C@]2(C(=O)O[C@@H]3O[C@H](CO)[C@@H](O)[C@H](O)[C@H]3O)CC[C@]3(C)C(=CCC4[C@@]5(C)C[C@H](O)[C@H](O[C@@H]6O[C@H](C(=O)O)[C@@H](O)[C@H](O)[C@H]6O)[C@@](C)(CO)C5CC[C@]43C)C2C1 (some centres not stated) , field viability, % of control: 20.7% [at 9.25 µM] (inactive)
